# measurement_target: human Cot/Tpl2 kinase (Homo sapiens, UniProt P41279)
# Construct: human Cot/Tpl2 kinase construct encoding residues 30-398; 6His (N); made in house; host or cells: Sf9 insect cells, baculovirus system (BD Biosciences)
# Sequence (P41279 30-398): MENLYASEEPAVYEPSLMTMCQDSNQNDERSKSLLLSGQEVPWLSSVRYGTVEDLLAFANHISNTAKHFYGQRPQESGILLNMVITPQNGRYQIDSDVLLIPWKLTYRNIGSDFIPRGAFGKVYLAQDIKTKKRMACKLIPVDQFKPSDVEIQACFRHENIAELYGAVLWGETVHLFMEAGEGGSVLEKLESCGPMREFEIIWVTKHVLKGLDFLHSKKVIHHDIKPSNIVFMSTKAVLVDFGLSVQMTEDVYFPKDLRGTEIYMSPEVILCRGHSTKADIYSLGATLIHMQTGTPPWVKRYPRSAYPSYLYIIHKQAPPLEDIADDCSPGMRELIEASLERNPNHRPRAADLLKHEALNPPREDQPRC
# assay_protocol: Tpl2/Cot kinase assay: GST-MEK1 phosphorylation detected by ELISA (DELFIA Eu)
# Format: biochemical
# condition_set: 0.4 nM Tpl2, 35 nM GST-MEK1, 50 uM ATP, 1 h at 30° C.
value_kind: IC50 (nM)

I: N#Cc1cnc2cc(OCCCN3CCOCC3)c(NCc3cnc[nH]3)cc2c1Nc1ccc(F)c(Cl)c1
II: N#Cc1cnc2c(Br)cc(NCc3cccnc3)cc2c1Nc1ccc(F)c(Cl)c1
Please compare: I and II . Report which one has the smaller IC50 value. Let me know the label of the one you choose.
II

A: N#Cc1cnc2c(Br)cc(NCc3cn(C4CCNCC4)nn3)cc2c1Nc1ccc(F)c(Cl)c1
B: CN1CCC[C@H]1CCn1cc(CNc2cc(Br)c3ncc(C#N)c(Nc4ccc(F)c(Cl)c4)c3c2)nn1
Recorded IC50 values differ for A and B ; which one is higher? // output: label of the selected item
B
(B: 50 nM, A: 10 nM)

1: C/C=C/c1cc(NCc2cccnc2)cc2c(Nc3ccc(F)c(Cl)c3)c(C#N)cnc12
2: CN(C)C(=O)c1cc(NCc2cccc(C#N)c2)cc2c(Nc3ccc(F)c(Cl)c3)c(C#N)cnc12
3: N#Cc1cnc2ccc(NCc3cccc(Oc4ccccc4)c3)cc2c1Nc1ccc(F)c(Cl)c1
Arrange the 3 compounds from largest to smallest IC50. # output: labels, in the requested order
3, 1, 2

---

# measurement_target: human Cot/Tpl2 kinase (Homo sapiens)
# Construct: human Cot/Tpl2 kinase construct encoding residues 30-398; 6His (N); made in house; host or cells: Sf9 insect cells, baculovirus system (BD Biosciences)
# assay_protocol: Tpl2/Cot kinase assay: GST-MEK1 phosphorylation detected by ELISA (DELFIA Eu)
# Format: biochemical
# condition_set: Table 2; Tpl2/Cot kinase, GST-MEK1 substrate, 50 uM ATP
value_kind: IC50 (nM)

# compound, experimental_result
rows = [
    ("N#Cc1cnc2c(Cl)cc(NCc3cn(-c4ccnc(N5CCCCC5)n4)nn3)cc2c1Nc1ccc(F)c(Cl)c1 [Example 578]", 320),
    ("N#Cc1cnc2ccc(NCCN3CCOCC3)cc2c1Nc1cccc(F)c1 [Example 351]", 1900),
    ("N#Cc1cnc2ccc(NCCN3CCOCC3)cc2c1Nc1ccc(Sc2ccccc2)c(Cl)c1 [Example 353]", 470),
    ("N#Cc1cnc2c(Cl)cc(NCC(=O)Nc3cccnc3)cc2c1Nc1ccc(F)c(Cl)c1 [Example 601]", 110),
    ("COCCOCCn1cc(CNc2cc(Cl)c3ncc(C#N)c(Nc4ccc(F)c(Cl)c4)c3c2)nn1 [Example 564]", 21),
]

1: N#Cc1cnc2c(Cl)cc(NCC(=O)NCCN3CCOCC3)cc2c1Nc1ccc(F)c(Cl)c1 [Example 608]
2: CN1CCCC1CCn1cnc(CNc2cc(Br)c3ncc(C#N)c(Nc4ccc(F)c(Cl)c4)c3c2)c1 (stereo not shown) [Example 548]
Returns: the label, 1 or 2 , whose recorded IC50 is the lower number. // caller expects the label of the chosen entry
2
(2: 34 nM, 1: 530 nM)

---

# measurement_target: human Cot/Tpl2 kinase (Homo sapiens)
# Construct: human Cot/Tpl2 kinase construct encoding residues 30-398; 6His (N); made in house; host or cells: Sf9 insect cells, baculovirus system (BD Biosciences)
# assay_protocol: Tpl2/Cot kinase assay: GST-MEK1 phosphorylation detected by ELISA (DELFIA Eu)
# Type: biochemical
# condition_set: Tpl2/Cot kinase, GST-MEK1 substrate, 50 uM ATP
pIC50: −log10 of the molar value.
value_kind: pIC50

# compound, experimental_result
rows = [
    ("CC(C)(C)OC(=O)N1CCN(CCCn2cc(CNc3cc(Cl)c4ncc(C#N)c(Nc5ccc(F)c(Cl)c5)c4c3)nn2)CC1 [Example 765]", 6.64),
    ("CSCn1cc(CNc2cc(Br)c3ncc(C#N)c(Nc4ccc(F)c(Cl)c4)c3c2)nn1 [Example 705]", 7.92),
    ("N#Cc1cnc2c(Cl)cc(NCc3cn(Cc4ccccn4)cn3)cc2c1Nc1ccc(F)c(Cl)c1 [Example 786]", 7.39),
    ("CCN1CCCCC1CNc1cc(Cl)c2ncc(C#N)c(Nc3ccc(F)c(Cl)c3)c2c1 (stereo not shown) [Example 870]", 5.71),
]

a: CC(C)NC(=O)NCCCn1cc(CNc2cc(Cl)c3ncc(C#N)c(Nc4ccc(F)c(Cl)c4)c3c2)nn1 [Example 908]
b: N#Cc1cnc2c(Br)cc(NCc3cn(CCN4CCOCC4)cn3)cc2c1Nc1ccc(F)c(Cl)c1 [Example 669]
Which numeric pIC50 is bigger, that of a or that of b ? Mark your answer with the label of the selected entry.
a
(a: 9.00, b: 7.39)

---

# measurement_target: human Cot/Tpl2 kinase (Homo sapiens, UniProt P41279)
# Construct: human Cot/Tpl2 kinase construct encoding residues 30-398; 6His (N); made in house; host or cells: Sf9 insect cells, baculovirus system (BD Biosciences)
# assay_protocol: Tpl2/Cot kinase assay: GST-MEK1 phosphorylation detected by ELISA (DELFIA Eu)
# Assay type: biochemical
# condition_set: 0.4 nM Tpl2, 35 nM GST-MEK1, 50 uM ATP, 1 h at 30° C.
# Method: Sf9 cells expressing the kinase were lysed in 50 mM NaPhosphate pH=8; 300 mM NaCl; 5 mM imidazole; 0.1 mM EGTA; 25 mM beta-glycerophosphate; 1% TX-100, 1% glycerol; 6 mM beta-mercaptoethanol and protease inhibitors. […] Tpl2/Cot activity was directly assayed using GST-MEK1 as a substrate. GST-MEK1 phosphorylation on serine residues 217 and 221 was detected by ELISA. […] After a final wash, Eu detection solution was added to each well and the Eu signal was measured in a Wallac Victor^2 Multilabel Counter. […]
pIC50: −log10 of the molar value.
value_kind: pIC50

# molecule, pIC50
data = [
    ("CN(C)c1ccc(CNc2ccc3ncc(C#N)c(Nc4ccc(F)c(Cl)c4)c3c2)c(F)c1C#N [Example 20]", 6.21),
]

a: N#Cc1cnc2c(Cl)cc(NCCN=[N+]=[N-])cc2c1Nc1ccc(F)c(Cl)c1 [Example 210]
b: N#Cc1cnc2c(Cl)cc(NCc3cc[n+]([O-])cc3)cc2c1Nc1ccc(F)c(Cl)c1 [Example 271]
Smaller pIC50 value? Options are a and b // caller expects the label of the chosen entry
a
(a: 5.72, b: 7.27)

P: N#Cc1cnc2c(Cl)cc(NCC3CCN(Cc4cccnc4)CC3)cc2c1Nc1ccc(F)c(Cl)c1 [Example 323]
Q: N#Cc1ccc(CNc2cc(C(F)(F)F)c3ncc(C#N)c(Nc4ccc(F)c(Cl)c4)c3c2)cc1 [Example 234]
R: N#Cc1cnc2c(CCC(=O)CO)cc(N)cc2c1Nc1ccc(F)c(Cl)c1 [Example 309]
S: N#Cc1cnc2c(Br)cc(NCc3cn(CCN4CCCCC4)nn3)cc2c1Nc1ccc(F)c(Cl)c1 [Example 296]
# desc sort on pIC50 across 4 molecules Your answer should be the labels, listed in the requested order.
S, P, R, Q
(S: 7.82, P: 5.87, R: 5.15, Q: 4.82)

A: N#Cc1cccc(CNc2cc(C(F)(F)F)c3ncc(C#N)c(Nc4ccc(F)c(Cl)c4)c3c2)c1 [Example 232]
B: CCc1nc(CNc2cc(Cl)c3ncc(C#N)c(Nc4ccc(F)c(Cl)c4)c3c2)c(C)[nH]1 [Example 190]
Would you kindly point out which of A and B has the smaller pIC50 figure? Answer by quoting the chosen item's label.
A

I: N#Cc1cnc2ccc(NCc3cccc(N)c3)cc2c1Nc1ccc(F)c(Cl)c1 [Example 14]
II: N#Cc1cnc2ccc(NCc3ccc(S(N)(=O)=O)cc3)cc2c1NC1CCCCCC1 [Example 250]
Compare the recorded pIC50 of I and II ; state which is larger. Answer format: the label of the selected item.
I
(I: 6.85, II: 5.17)

a: CN(C)CCSc1cc2ncc(C#N)c(Nc3ccc(F)c(Cl)c3)c2cc1NCc1cnc[nH]1 [Example 163]
b: CS(=O)(=O)NCCNc1cc(Cl)c2ncc(C#N)c(Nc3ccc(F)c(Cl)c3)c2c1 [Example 326]
Lab notebook, comparison: a versus b , higher pIC50 goes to which? # answer = label of selected item
b

---

# measurement_target: human Cot/Tpl2 kinase (Homo sapiens, UniProt P41279)
# Construct: human Cot/Tpl2 kinase construct encoding residues 30-398; 6His (N); made in house; host or cells: Sf9 insect cells, baculovirus system (BD Biosciences)
# assay_protocol: Tpl2/Cot kinase assay: GST-MEK1 phosphorylation detected by ELISA (DELFIA Eu)
# Assay type: biochemical
# condition_set: Table 2; Tpl2/Cot kinase, GST-MEK1 substrate, 50 uM ATP
value_kind: IC50 (µM)

Example molecules with recorded IC50:
# molecule, IC50 (µM)
records = [
    ("Cn1nnnc1CCNc1cc(Cl)c2ncc(C#N)c(Nc3ccc(F)c(Cl)c3)c2c1", 0.17),
    ("CNC(=O)CNc1cc(Cl)c2ncc(C#N)c(Nc3ccc(F)c(Cl)c3)c2c1", 0.47),
    ("CN1CCCN(CCCn2cc(CNc3cc(Br)c4ncc(C#N)c(Nc5ccc(F)c(Cl)c5)c4c3)nn2)CC1", 0.07),
    ("CC(C)(C)Nc1c(C#N)cnc2ccc(NCc3cnc[nH]3)cc12", 3.1),
    ("Cn1ccnc1CNc1cc(Cl)c2ncc(C#N)c(Nc3ccc(F)c(Cl)c3)c2c1", 0.0032),
]

A: N#Cc1cnc2c(Br)cc(NCc3cn(CCCN4CCCCC4)nn3)cc2c1Nc1ccc(F)c(Cl)c1
B: CC(C)(C)OC(=O)N1CCCC1Cn1cc(CNc2cc(Cl)c3ncc(C#N)c(Nc4ccc(F)c(Cl)c4)c3c2)nn1 (centres unmarked)
// pick min by IC50: A , B Indicate your choice by writing its label.
A

a: CC(c1ccccc1)n1cc(CNc2cc(Cl)c3ncc(C#N)c(Nc4ccc(F)c(Cl)c4)c3c2)nn1 (centres unmarked)
b: N#Cc1cnc2c(Cl)cc(NC3CCCC3N=[N+]=[N-])cc2c1Nc1ccc(F)c(Cl)c1 (centres unmarked)
c: N#Cc1cnc2c(Br)cc(NCc3cn(CC4CCCN4)nn3)cc2c1Nc1ccc(F)c(Cl)c1 (centres unmarked)
d: CNCCn1cc(CNc2cc(Br)c3ncc(C#N)c(Nc4ccc(F)c(Cl)c4)c3c2)nn1
e: C#Cc1cccc(Nc2c(C#N)cnc3ccc(NCCN4CCOCC4)cc23)c1
Order these by IC50, descending, and give the full ranking. List the labels in the requested order.
e, b, a, d, c

Taken from patent US20060264460A1.
